- Test system: ACHN
- Assay Name: NCI tumour cell line growth inhibition, 48 h
Active and inactive are the calls of the source. No stated cut-off is given here; in the data, active = GI50 up to about 1.1 µM and inactive = higher.
# GI50 per entry

A selection of reference data follows.
| Compound | GI50 |
| --- | --- |
| COc1cc(/C=c2/c3ccccc3n3c2cc(-c2ccccc2)[n+]3C)cc(OC)c1OC | 4.07 µM (inactive) |
| Nc1ncnc2c1ncn2C1OC(CSCc2ccc(Cl)cc2)C(O)C1O (stereo not given) | 34.9 µM (inactive) |
| CN(C)CC/C(=N\Nc1ccc(Cl)cc1Cl)c1ccccc1 | 15 µM (inactive) |
| O=C(OCc1ccccc1)N1CCN(C(=O)OCc2ccccc2)CCN(C(=O)OCc2ccccc2)CCN(C(=O)OCc2ccccc2)CCN(C(=O)OCc2ccccc2)CC1 | > 100 µM (inactive) |

In: Quick one: GI50 of "Clc1cccc(-c2nnc(-c3nn(-c4ccccc4)c4nc5ccccc5nc34)o2)c1" ?
Out: > 100 µM (inactive)

In: Record request: GI50 value, item CCCCCCCCC/C=C1\CC(CO)(COC(=O)C2CCCCC2)OC1=O (stereo not given)
Out: 20 µM (inactive)

In: Requested field: GI50. Item: "NC(=O)N1N=C2c3ccccc3OC[C@H]2[C@@H]1c1ccccc1"
Out: 5.68 µM (inactive)

In: Please report the recorded GI50 for "C/C(=C\C(=O)Nc1ccc2[nH]nnc2c1)Nc1ccc2[nH]nnc2c1" .
Out: > 100 µM (inactive)

In: Give its GI50 value. Item: "N#Cc1ccc(/C=[N+](/C=c2ccc(=C=[N-])cc2)N(CCO)C2=NCCN2)cc1"
Out: > 100 µM (inactive)

In: Which GI50 is reported for this compound? COc1cc(C=O)c(-c2cc3c(cc2C2(C)OCCS2)OCO3)c(OC)c1OC (stereo not given)
Out: 18.5 µM (inactive)
